measurement_target: Neu5Ac(a2-3)Gal(b1-3)[Neu5Ac(a2-6)]GalNAc
test_protocol: glycan array binding signal (z-score within array); higher = stronger binding
condition_description: glycan notation: IUPAC condensed, linker removed
Many of the other results were omitted from the sample, so the strongest signals are more common in it than they were.
readout_name: glycan array binding signal (z-score)

binder: BSR4 (Toxoplasma gondii), Q95NL6 (protein) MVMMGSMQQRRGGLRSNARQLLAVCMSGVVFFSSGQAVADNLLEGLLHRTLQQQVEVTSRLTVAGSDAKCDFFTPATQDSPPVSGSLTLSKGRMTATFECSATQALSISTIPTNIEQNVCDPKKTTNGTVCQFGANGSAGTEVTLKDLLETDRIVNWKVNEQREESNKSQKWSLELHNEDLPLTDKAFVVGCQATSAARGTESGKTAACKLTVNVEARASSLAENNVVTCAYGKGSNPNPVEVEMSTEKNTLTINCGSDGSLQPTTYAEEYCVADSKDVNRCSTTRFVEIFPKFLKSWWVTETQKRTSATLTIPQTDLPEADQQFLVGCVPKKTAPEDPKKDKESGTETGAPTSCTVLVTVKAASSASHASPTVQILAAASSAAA
glycan array binding signal (z-score): 0.026

Now let's try a different one.
Q) Form field: reported glycan array binding signal (z-score) of Epa12 (Candida glabrata) (protein) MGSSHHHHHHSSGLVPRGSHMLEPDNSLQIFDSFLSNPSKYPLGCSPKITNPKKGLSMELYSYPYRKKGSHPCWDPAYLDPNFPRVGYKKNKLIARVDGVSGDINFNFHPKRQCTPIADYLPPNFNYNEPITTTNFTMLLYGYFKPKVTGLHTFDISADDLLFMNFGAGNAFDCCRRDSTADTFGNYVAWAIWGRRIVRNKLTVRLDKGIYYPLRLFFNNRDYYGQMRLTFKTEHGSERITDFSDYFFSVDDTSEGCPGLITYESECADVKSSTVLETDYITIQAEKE
A) -0.335

These measurements were taken from the supplement of paper PMC8728848.
